Biological target: Proteasome subunit beta type-9 (Homo sapiens, UniProt P28065)
Sequence (P28065 whole entry): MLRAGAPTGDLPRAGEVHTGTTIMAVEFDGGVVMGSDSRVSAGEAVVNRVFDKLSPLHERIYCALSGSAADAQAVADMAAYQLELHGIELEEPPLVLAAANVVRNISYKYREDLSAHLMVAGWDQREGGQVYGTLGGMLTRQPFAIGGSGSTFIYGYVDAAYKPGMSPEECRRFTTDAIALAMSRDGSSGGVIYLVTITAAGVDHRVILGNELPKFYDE
Test: Inhibition of human 20S immunoproteasome beta-1 using Ac-PAL-AMC as substrate incubated for 15 mins measured for 45 mins by fluorescence assay
MEASURE NAME: IC50

Q: What value of IC50 has been reported for the following compound? `C[C@H](NC(=O)[C@H](Cc1ccc(OCc2ccccc2)cc1)NC(=O)OC(C)(C)C)C(=O)N[C@@H](C[C@]1(O)C(=O)Nc2ccccc21)C(=O)NCC(C)(C)C`
A: 21 µM

Q: What do you have for `C[C@H](NC(=O)OCc1ccccc1)C(=O)N[C@@H](C[C@]1(O)C(=O)Nc2ccccc21)C(=O)NCc1ccccc1` ?
A: 45 µM

Q: Also check `C[C@H](NC(=O)c1ccc(OCc2ccccc2)cc1)C(=O)N[C@@H](C[C@]1(O)C(=O)Nc2ccccc21)C(=O)NCc1ccccc1`
A: 52 µM

Q: Query `C[C@H](O)[C@@H](NC(=O)[C@H](Cc1ccc(OCc2ccccc2)cc1)NC(=O)OC(C)(C)C)C(=O)N[C@@H](C[C@]1(O)C(=O)Nc2ccccc21)C(=O)NCc1ccccc1` next
A: 8.8 µM

Q: Here is the next compound: `CC(C)(C)OC(=O)N[C@@H](Cc1ccc(OCc2ccccc2)cc1)C(=O)N[C@@H](CC(N)=O)C(=O)N[C@@H](C[C@]1(O)C(=O)Nc2ccccc21)C(=O)NCc1ccccc1`
A: 16.1 µM

Q: Entry to check: `C[C@H](O)[C@@H](NC(=O)OCc1ccccc1)C(=O)N[C@@H](C[C@]1(O)C(=O)Nc2ccccc21)C(=O)NCc1ccccc1`
A: 24.6 µM

Q: Moving on to the next compound: `C[C@@H](NC(=O)[C@H](Cc1ccc(OCc2ccccc2)cc1)NC(=O)OC(C)(C)C)C(=O)N[C@@H](C[C@]1(O)C(=O)Nc2ccccc21)C(=O)NCc1ccccc1`
A: 12.5 µM

Q: Can you handle `C[C@@H](O)[C@@H](NC(=O)c1ccc(OCc2ccccc2)cc1)C(=O)N[C@@H](C[C@]1(O)C(=O)Nc2ccccc21)C(=O)NCc1ccccc1` next?
A: 23.8 µM

Q: Field entry: `C[C@H](NC(=O)[C@H](Cc1ccc(OCc2ccccc2)cc1)NC(=O)OC(C)(C)C)C(=O)N[C@@H](C[C@]1(O)C(=O)Nc2ccccc21)C(=O)NCCc1ccccc1`
A: 7.31 µM

Q: Would you mind doing `NCCCC[C@H](NC(=O)[C@@H](N)Cc1ccc(OCc2ccccc2)cc1)C(=O)N[C@@H](C[C@]1(O)C(=O)Nc2ccccc21)C(=O)NCc1ccccc1` as well?
A: 4.3 µM

Q: Field entry: `C[C@H](NC(=O)[C@H](Cc1ccc(OCc2ccccc2)cc1)NC(=O)OC(C)(C)C)C(=O)N[C@@H](C[C@]1(O)C(=O)Nc2ccccc21)C(=O)NCc1ccc(-c2ccccc2)cc1`
A: 13 µM

Q: Again, but for `C[C@H](NC(=O)[C@H](Cc1ccc(OCc2ccccc2)cc1)NC(=O)OC(C)(C)C)C(=O)N[C@@H](C[C@]1(O)C(=O)Nc2ccccc21)C(=O)NCC1CCCCC1`
A: 4.8 µM

Q: // repeat for `C[C@H](NC(=O)[C@H](Cc1ccc(OCc2ccccc2)cc1)NC(=O)OC(C)(C)C)C(=O)N[C@@H](C[C@]1(O)C(=O)N(C)c2ccccc21)C(=O)NCc1ccccc1` and report
A: 10.3 µM
